target or test system: RORα LBD (Homo sapiens (Human), UniProt P35398)
Sequence (P35398 272-510): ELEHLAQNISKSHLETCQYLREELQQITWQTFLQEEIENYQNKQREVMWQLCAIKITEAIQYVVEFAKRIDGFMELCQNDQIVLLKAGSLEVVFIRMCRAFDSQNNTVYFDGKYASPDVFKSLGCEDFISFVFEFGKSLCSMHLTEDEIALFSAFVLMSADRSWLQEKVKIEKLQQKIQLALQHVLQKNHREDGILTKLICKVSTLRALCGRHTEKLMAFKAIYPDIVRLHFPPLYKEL
test description: TR-FRET co-activator D22 interaction with RORα LBD
Assay type: biochemical
setup conditions: 2 hr; read-out: RORα EC50 D22 co-activator displacement 2 hr
value kind: EC50

{"compound": "CC(=O)Nc1ccc2c(c1)CCN2Cc1ccc(-c2cc(C)n[nH]2)cc1", "target or test system": "RORα LBD (Homo sapiens (Human), UniProt P35398)", "value kind": "EC50", "assay value": "> 30 µM"}
{"compound": "CC(=O)Nc1ccc2c(c1)CCN2Cc1ccc(C(=O)N(C)c2ccccc2)cc1", "target or test system": "RORα LBD (Homo sapiens (Human), UniProt P35398)", "value kind": "EC50", "assay value": "> 30 µM"}
{"compound": "CC(=O)Nc1ccc2c(c1)CCN2Cc1ccc(C(O)(C(F)(F)F)C(F)(F)F)cc1", "target or test system": "RORα LBD (Homo sapiens (Human), UniProt P35398)", "value kind": "EC50", "assay value": "> 30 µM"}
{"compound": "CS(=O)(=O)Nc1ccc2c(c1)CCC(=O)N2Cc1ccc(C(O)(C(F)(F)F)C(F)(F)F)cc1", "target or test system": "RORα LBD (Homo sapiens (Human), UniProt P35398)", "value kind": "EC50", "assay value": "< 30 µM"}
{"compound": "CC(=O)Nc1ccc2c(c1)CCN2Cc1ccc(C(C)C)cc1", "target or test system": "RORα LBD (Homo sapiens (Human), UniProt P35398)", "value kind": "EC50", "assay value": "> 30 µM"}
